Data origin, for the record: patent US20230135093A1

- assay target: h-GABA-A α5β3γ2 (Homo sapiens, UniProt P18507+P31644)
- Construct: expressed in transfected cells; host or cells: Xenopus laevis oocytes, micro-injected with subunit RNA
- Sequence (P31644 32-462): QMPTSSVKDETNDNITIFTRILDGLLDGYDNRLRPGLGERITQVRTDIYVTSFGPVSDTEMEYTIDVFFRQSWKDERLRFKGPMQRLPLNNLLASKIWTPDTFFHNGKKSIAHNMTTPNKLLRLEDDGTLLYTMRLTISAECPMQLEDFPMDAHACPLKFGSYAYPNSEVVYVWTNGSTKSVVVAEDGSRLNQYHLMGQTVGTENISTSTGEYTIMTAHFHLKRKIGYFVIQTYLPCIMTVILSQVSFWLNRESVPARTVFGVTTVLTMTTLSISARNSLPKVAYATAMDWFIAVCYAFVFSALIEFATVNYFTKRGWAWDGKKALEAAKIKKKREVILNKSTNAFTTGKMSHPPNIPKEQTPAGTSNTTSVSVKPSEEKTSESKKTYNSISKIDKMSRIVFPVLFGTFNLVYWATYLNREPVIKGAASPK
- Sequence (P28472 26-473 partner): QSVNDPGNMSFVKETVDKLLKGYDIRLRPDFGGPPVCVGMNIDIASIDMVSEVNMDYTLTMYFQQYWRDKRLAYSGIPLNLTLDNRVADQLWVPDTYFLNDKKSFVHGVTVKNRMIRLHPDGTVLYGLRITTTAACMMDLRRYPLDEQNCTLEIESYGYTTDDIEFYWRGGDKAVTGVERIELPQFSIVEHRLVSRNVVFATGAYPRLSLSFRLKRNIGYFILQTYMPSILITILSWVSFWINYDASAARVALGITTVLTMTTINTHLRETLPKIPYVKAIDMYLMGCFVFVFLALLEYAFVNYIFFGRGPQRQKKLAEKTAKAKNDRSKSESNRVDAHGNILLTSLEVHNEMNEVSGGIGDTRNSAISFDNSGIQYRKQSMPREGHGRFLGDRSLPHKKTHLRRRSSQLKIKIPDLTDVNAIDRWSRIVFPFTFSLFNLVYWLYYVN
- Sequence (P18507 40-475): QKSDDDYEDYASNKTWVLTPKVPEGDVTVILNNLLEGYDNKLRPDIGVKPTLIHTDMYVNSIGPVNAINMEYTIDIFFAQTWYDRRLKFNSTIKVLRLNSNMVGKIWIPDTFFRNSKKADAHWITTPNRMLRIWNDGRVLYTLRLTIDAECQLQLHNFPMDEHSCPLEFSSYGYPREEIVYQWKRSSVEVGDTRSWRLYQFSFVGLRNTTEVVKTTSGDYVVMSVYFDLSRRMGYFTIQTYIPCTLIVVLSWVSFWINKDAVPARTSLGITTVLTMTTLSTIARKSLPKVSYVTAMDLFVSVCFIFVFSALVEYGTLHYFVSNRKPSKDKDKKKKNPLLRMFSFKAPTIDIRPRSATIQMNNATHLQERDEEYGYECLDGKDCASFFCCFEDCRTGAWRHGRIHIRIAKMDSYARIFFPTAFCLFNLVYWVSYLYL
- experiment: Two-electrode voltage clamp electrophysiology in Xenopus oocytes expressing GABAA receptors (modulation of GABA EC20 current)
- Type: cell-based
- test conditions: Table 1; Xenopus oocytes, GABA EC20, test compound at approximatively 30 fold its Ki
Answer NO if Fold increase h-GABA-A α5β3γ2 oocyte is under 2, and YES if it is 2 or more.

* Cc1nnn(-c2ccc(Cl)cc2F)c1Cn1ncc(-c2ccnc(C(F)(F)F)c2)cc1=O | NO
* CCn1nnc(-c2ccc(Cl)cc2F)c1Cn1ncc(N2CC(OCC(F)F)C2)cc1=O | YES
* Cn1nnc(-c2ccc(Cl)cc2F)c1Cn1ncc(N2CC(Oc3ccnc(Cl)c3)C2)cc1=O | YES
* CCn1nnc(-c2ccc(Cl)cc2F)c1Cn1ncc(-c2cnn(C3CC3)c2)cc1=O | YES
* Cn1nnc(-c2ccc(Cl)cc2)c1Cn1ncc(N2CC(OCC(F)(F)F)C2)cc1=O | NO
* Cc1nnn(-c2ccc(Cl)cc2F)c1Cn1ncc(N2CCN(C(=O)C3CC3)CC2)cc1=O | YES
* Cn1nnc(-c2ccc(C(F)(F)F)cc2F)c1Cn1ncc(N2CC(OCC(F)F)C2)cc1=O | YES
* Cn1nnc(-c2ccc(Cl)cc2F)c1Cn1ncc(N2CC(Oc3cccnn3)C2)cc1=O | NO

====

- assay target: h-GABA-A α5β3γ2 (Homo sapiens, UniProt P18507+P31644)
- Construct: expressed in transfected cells; host or cells: Xenopus laevis oocytes, micro-injected with subunit RNA
- experiment: Two-electrode voltage clamp electrophysiology in Xenopus oocytes expressing GABAA receptors (modulation of GABA EC20 current)
- Assay type: cell-based
- test conditions: Table 1; Xenopus oocytes, GABA EC20, test compound at approximatively 30 fold its Ki
recorded endpoint: Fold increase h-GABA-A α5β3γ2 oocyte

* Cn1nnc(-c2ccc(C(F)(F)F)cc2F)c1Cn1ncc(N2CC(Oc3ccccn3)C2)cc1=O | 1.73
* Cn1nnc(-c2ccc(C(F)(F)F)cc2F)c1Cn1ncc(N2CC(OC3CCC3)C2)cc1=O | 1.66
* Cc1nnn(-c2ccc(Cl)cc2F)c1Cn1ncc(N2CCO[C@@H](C)C2)cc1=O | 2.3
* Cc1nnn(-c2ccc(Cl)cc2F)c1Cn1ncc(N2C[C@H](C)O[C@@H](C)C2)cc1=O (racemic) | 2.35
* CC(C)OC1CN(c2cnn(Cc3c(-c4ccc(C(F)(F)F)cc4F)nnn3C)c(=O)c2)C1 | 1.71
* Cc1nnn(-c2ccc(Cl)cc2F)c1Cn1ncc(N2C[C@@H](C)O[C@@H](C)C2)cc1=O | 2.64
* COc1cc(-c2cnn(Cc3c(-c4ccc(Cl)cc4F)nnn3C)c(=O)c2)ccn1 | 1.42
* CCc1nccn1C1CCN(c2cnn(Cc3c(C)nnn3-c3ccc(Cl)cc3F)c(=O)c2)CC1 | 2.3
* CC(C)OC1CN(c2cnn(Cc3c(-c4ncc(C(F)(F)F)cn4)nnn3C)c(=O)c2)C1 | 1.48
* COc1ncccc1N1CCN(c2cnn(Cc3c(C)nnn3-c3ccc(Cl)cc3F)c(=O)c2)CC1 | 2.08
* Cn1nnc(-c2ccc(C(F)(F)F)cc2F)c1Cn1ncc(N2CC(Oc3cnccn3)C2)cc1=O | 1.76
* CCn1nnc(-c2ccc(Cl)cc2F)c1Cn1ncc(-c2cnc(OC)c(Cl)c2)cc1=O | 2.39
* COc1ncc(-c2cnn(Cc3c(-c4ncc(C(F)(F)F)cn4)nnn3C)c(=O)c2)cc1Cl | 2.35
* Cn1nnc(-c2ccc(Cl)cc2F)c1Cn1ncc(N2CC3(CCCO3)C2)cc1=O | 1.49
* CC(C)O[C@@H]1CCN(c2cnn(Cc3c(-c4ccc(Cl)cc4F)nnn3C)c(=O)c2)C1 | 1.71
* Cn1nnc(-c2ccc(C(F)(F)F)cc2F)c1Cn1ncc(N2CC3(CCCO3)C2)cc1=O | 1.73
